# tgt: Replicase polyprotein 1ab (Severe acute respiratory syndrome coronavirus 2)
# procedure_text: Inhibition of SARS-Cov-2 RdRp expressed in HEK293T cells co-transfected with pCoV-Gluc and pCOVID-nsp12/7/8/10/14 assessed as tolerance to proof reading activity of nsp14/10 exonuclease incubated for 24 hrs by microplate luminometric analysis
# Assay type: cell-based
property_name: pEC50
Give bare numbers, as −log10 of the molar value.

Worked examples follow.
smiles_record: Cc1cccc(CNC(=O)CSc2[nH]c3ccccc3c2SCC(=O)Nc2ccc(Cl)c(Cl)c2)c1
pEC50: 5.76

smiles_record: CCOc1ccccc1NC(=O)CSc1c(SCC(=O)NCc2ccccc2F)[nH]c2ccccc12
pEC50: 5.97

For each of the molecules below, state pEC50.
1. CCOc1ccccc1NC(=O)CSc1c(SCC(=O)NCc2cccc(Cl)c2)[nH]c2ccccc12
2. O=C(CSc1[nH]c2ccccc2c1SCC(=O)Nc1ccc(Cl)c(Cl)c1)NCc1ccccc1F
3. CCOc1ccccc1CNC(=O)CSc1[nH]c2ccccc2c1SCC(=O)Nc1ccc(Cl)c(Cl)c1

1: 6.07; 2: 5.74; 3: 5.77
